Where do the numbers come from? From patent US20160083466A1.

System tested: T1, human IL-25 expressed with a C-terminal myc-myc-hexahistidine tag (human)
T1 construct: also called human IL-25-MMH; hIL-25-MMH
T1 chain: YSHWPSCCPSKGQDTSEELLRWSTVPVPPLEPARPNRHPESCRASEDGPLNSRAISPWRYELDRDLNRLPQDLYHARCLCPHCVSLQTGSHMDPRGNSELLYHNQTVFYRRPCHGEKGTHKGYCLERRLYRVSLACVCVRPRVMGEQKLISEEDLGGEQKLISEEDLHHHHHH
Protocol: SPR Biacore, captured mAb, 25°C;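 further: biacore 4000 SPR with IL-25-MMH as analyte over purified anti-IL-25 antibodies, association and dissociation rates derived from fitting sensorgrams to a 1:1 binding model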
Readout name: 100 nM Human IL-25-MMH Bound (RU)
Unit RU implied. Number only.

Exercise: Note down 100 nM Human IL-25-MMH Bound (RU) recorded for H4H10876P (antibody, human IgG4, V domains shown) VH: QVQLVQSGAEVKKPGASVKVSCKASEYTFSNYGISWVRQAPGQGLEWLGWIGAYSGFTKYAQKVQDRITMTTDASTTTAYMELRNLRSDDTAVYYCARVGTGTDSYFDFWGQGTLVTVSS VL: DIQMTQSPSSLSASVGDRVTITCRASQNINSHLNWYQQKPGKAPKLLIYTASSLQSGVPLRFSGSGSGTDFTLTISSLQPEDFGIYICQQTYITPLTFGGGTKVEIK
Solution: 45

Exercise: Assign 100 nM Human IL-25-MMH Bound (RU) to the following record: H4H10871P (antibody, human IgG4, V domains shown) VH: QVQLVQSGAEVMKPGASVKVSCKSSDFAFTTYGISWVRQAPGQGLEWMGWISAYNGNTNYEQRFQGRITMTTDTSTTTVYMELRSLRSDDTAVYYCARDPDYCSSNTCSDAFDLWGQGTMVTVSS VL: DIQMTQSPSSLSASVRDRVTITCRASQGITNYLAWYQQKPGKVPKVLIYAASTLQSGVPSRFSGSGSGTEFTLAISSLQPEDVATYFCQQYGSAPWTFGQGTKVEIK
Solution: 38

Exercise: Name the recorded 100 nM Human IL-25-MMH Bound (RU) of the item H4H10897P (antibody, human IgG4, V domains shown) VH: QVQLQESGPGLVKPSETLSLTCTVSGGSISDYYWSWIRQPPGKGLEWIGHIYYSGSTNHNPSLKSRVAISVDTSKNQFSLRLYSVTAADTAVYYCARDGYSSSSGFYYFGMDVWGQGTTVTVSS VL: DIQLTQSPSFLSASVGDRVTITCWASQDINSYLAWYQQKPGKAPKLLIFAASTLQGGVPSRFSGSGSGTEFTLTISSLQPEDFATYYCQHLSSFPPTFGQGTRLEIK in your answer.
Solution: 39
